B1: VH:VL chains; a variant is named by its letters at X, in order (parent)
chain 1: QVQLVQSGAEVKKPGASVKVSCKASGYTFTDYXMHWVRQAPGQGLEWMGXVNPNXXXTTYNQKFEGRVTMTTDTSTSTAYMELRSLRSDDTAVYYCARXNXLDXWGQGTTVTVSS
chain 2: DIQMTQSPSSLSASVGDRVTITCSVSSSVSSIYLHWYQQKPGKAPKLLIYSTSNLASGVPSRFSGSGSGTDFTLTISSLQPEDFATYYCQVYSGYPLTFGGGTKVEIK

variants of: B1; experiment: yeast display scFab, FACS + sequencing; conditions: with MET
The other results are listed elsewhere or left out. How many sequences the whole screen found active is unknown.
measured_property: antigen binding call

| variant_id | endpoint_value |
| --- | --- |
| YRRRGAVF | binds |
| DAGGGDWD | no binding |
| VEEASSWA | no binding |
| FRGRDDVF | no binding |
| VRARGAGF | binds |
| FAGRGSAD | binds |
| VKTKGVVD | no binding |
| VKERGDGV | no binding |
| SRGRGSLS | binds |
| VGGGASGV | no binding |
| FRGGDYGS | no binding |
| ATGANSLD | no binding |
| FRGRDFAD | no binding |
| STGGDDVY | no binding |
| YRTADDWV | no binding |
| STGKGSGV | no binding |
| YRRRSAGA | binds |
| VTGTGSGF | no binding |
| YRRRGAGY | binds |
| FAKEGFWD | no binding |
| DREGDAVA | no binding |
| DREEGAGA | no binding |
| VEGTSASV | no binding |
| VTTGSASF | no binding |
| VEKEGDGV | no binding |
| YTGTSAVA | no binding |
| FKGRGAAD | binds |
| SARRGDWA | no binding |
| DEGGTDWV | no binding |
| VTGTGYVF | no binding |
| SAGRGDGS | no binding |
| SRGRGSSS | binds |
| YRGAGFVD | no binding |
| VEGTGVGD | no binding |
| SEARSDSF | no binding |
| DGGGNDLA chain 1 R87K | no binding |
| DAGGDAGD | no binding |
| VTGGDDVY | no binding |
| YGGGGDVV | no binding |
| FKGRGSAD | binds |
| DRERGDGY | no binding |
| ARGKGSGD | no binding |
| DATGGDAD | no binding |
